// values below are reported TGI
system: M14 melanoma; experiment: NCI tumour cell line growth inhibition, 48 h
Please append the unit to your numeric answer.

{"columns": ["smiles-text", "TGI"],
 "data": [
  ["C=C(C)[C@@H]1CC[C@]2(COS(C)(=O)=O)CC[C@]3(C)[C@H](CC[C@@H]4[C@@]5(C)CCCNC(C)(C)[C@@H]5CC[C@]43C)[C@@H]12", "3.47 µM"],
  ["O=C1C(N2CCN(c3ccccc3)CC2)=C(Cl)C(=O)c2ncccc21", "14.7 µM"],
  ["Cc1ccc2c(n1)C(=O)C(Cl)=C(Nc1cccc(C(C)C)c1)C2=O", "10.1 µM"]
]}

Note: attention shifts to another entry.
Query: Need TGI, item COCCNc1ccc2ncc(C#Cc3cncc(C(=O)Nc4ccc(CN5CCN(C)CC5)c(C(F)(F)F)c4)c3)n2n1
Result: 0.408 µM

====

test system: DU-145 prostate; test: NCI tumour cell line growth inhibition, 48 h
compounds and their reported GI50

{"columns": ["smiles-text", "GI50"],
 "data": [
  ["C=C(C)[C@@H]1CC[C@]2(COS(C)(=O)=O)CC[C@]3(C)[C@H](CC[C@@H]4[C@@]5(C)CCCNC(C)(C)[C@@H]5CC[C@]43C)[C@@H]12", "1810 nM"],
  ["COc1ccc2c(c1)c(CC(=O)[Se]CCC#N)c(C)n2C(=O)c1ccc(Cl)cc1", "2260 nM"],
  ["C=C(C=O)[C@@H]1CC[C@]2(C)[C@H](CC=C3[C@H]4[C@@H](C)[C@H](C)CC[C@]4(C(=O)OC)CC[C@]32C)[C@@]1(C)CCC#N", "1940 nM"]
]}

Now for the compound whose GI50 we want.
Query: Item: COCCNc1ccc2ncc(C#Cc3cncc(C(=O)Nc4ccc(CN5CCN(C)CC5)c(C(F)(F)F)c4)c3)n2n1 Test system: DU-145 prostate Read-out: GI50 Value: ?
Result: 251 nM

====

tested on: SF-268 CNS; assay: NCI tumour cell line growth inhibition, 48 h; in the data active = GI50 below about 0.43 µM; inactive = the rest
Respond using exactly one of the listed classes: true = active, false = inactive

Query: Outcome logged for O=C1C(N2CCN(c3ccccc3)CC2)=C(Cl)C(=O)c2ncccc21 in this assay:
Result: false

Query: recorded result category for COc1cc2c3c(cc4c5c(ccc4c3c1OC)OCO5)N(CCN(C)C)C2=O in this test
Result: true

Query: What classification did COc1ccc2c(c1)c(CC(=O)[Se]CCC#N)c(C)n2C(=O)c1ccc(Cl)cc1 end up with in this test?
Result: false

Query: Which result was noted for this molecule in the test: C=C(C=O)[C@@H]1CC[C@]2(C)[C@H](CC=C3[C@H]4[C@@H](C)[C@H](C)CC[C@]4(C(=O)OC)CC[C@]32C)[C@@]1(C)CCC#N
Result: false
